assaySystem: Ephrin type-A receptor 4 (Homo sapiens) (UniProt P54764);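 further: mean inhibition of EPHA4 from the GSK PKIS screening set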
Sequence (P54764 whole entry): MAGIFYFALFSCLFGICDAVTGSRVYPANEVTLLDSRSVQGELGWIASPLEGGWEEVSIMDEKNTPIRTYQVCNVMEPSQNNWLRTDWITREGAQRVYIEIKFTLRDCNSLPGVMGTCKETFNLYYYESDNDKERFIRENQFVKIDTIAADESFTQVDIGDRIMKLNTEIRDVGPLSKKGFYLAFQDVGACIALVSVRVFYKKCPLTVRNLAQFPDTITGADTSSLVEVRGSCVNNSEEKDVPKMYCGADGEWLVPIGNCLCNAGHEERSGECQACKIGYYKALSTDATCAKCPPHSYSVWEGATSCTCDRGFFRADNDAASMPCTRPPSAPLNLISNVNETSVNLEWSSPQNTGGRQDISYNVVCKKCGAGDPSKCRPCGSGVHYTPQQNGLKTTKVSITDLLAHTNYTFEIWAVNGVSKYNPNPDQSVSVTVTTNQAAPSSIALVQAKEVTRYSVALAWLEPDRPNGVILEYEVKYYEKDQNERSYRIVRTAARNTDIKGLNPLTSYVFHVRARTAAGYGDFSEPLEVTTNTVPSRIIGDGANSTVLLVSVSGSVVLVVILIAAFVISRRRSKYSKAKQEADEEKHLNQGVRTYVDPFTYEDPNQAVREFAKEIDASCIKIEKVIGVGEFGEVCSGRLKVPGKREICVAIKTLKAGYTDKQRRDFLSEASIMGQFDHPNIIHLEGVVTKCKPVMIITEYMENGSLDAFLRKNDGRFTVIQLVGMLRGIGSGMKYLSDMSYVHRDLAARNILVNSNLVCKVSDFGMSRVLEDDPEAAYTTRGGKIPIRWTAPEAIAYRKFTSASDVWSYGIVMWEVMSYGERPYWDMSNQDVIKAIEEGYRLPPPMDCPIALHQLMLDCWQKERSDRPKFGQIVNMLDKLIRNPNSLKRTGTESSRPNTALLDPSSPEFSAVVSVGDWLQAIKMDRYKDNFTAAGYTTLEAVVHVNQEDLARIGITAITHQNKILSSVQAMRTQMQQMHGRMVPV
conditionSet: at 0.1 µM
# maps each entry to its inhibition
Express your answer in %, writing the number without its unit.

Returns the measured inhibition for the input molecule. Input: COc1cc2ncn(-c3cc(OCc4ccccc4Cl)c(C(N)=O)s3)c2cc1OC
0.5

Same read-out for Fc1cccc(COc2ccc(Nc3ncnc4sc(-c5cccs5)cc34)cc2Cl)c1 ?
-0.88

Same read-out for O=C(Nc1n[nH]c2nc(-c3ccco3)c(Br)cc12)C1CC1 ?
7.41

Same read-out for Nc1ncnc2occ(-c3ccc(NC(=O)Nc4cc(C(F)(F)F)cc(C(F)(F)F)c4)cc3)c12 ?
8.44

Same read-out for COc1ccc(-c2coc3ncnc(N)c23)cc1 ?
7.51

Same read-out for COc1cc2ncn(-c3cc(OCc4ccccc4C(F)(F)F)c(C(N)=O)s3)c2cc1OC ?
11.3

Same read-out for NCc1ccc(-c2nc(-c3ccc(Cl)c(O)c3)c(-c3ccncc3)[nH]2)cc1 ?
4.74

Same read-out for Cc1nnc(-c2ccc(C)c(-c3ccc(C(=O)Nc4cccc(C#N)c4)cc3)c2)o1 ?
6.99

Same read-out for CCn1c(-c2nonc2N)nc2c(C#CC(C)(C)O)nc(CN3CCCC3)cc21 ?
-7.89

Same read-out for c1cnn2ncc(-c3ccnc(Nc4ccc5c(c4)OCCO5)n3)c2c1 ?
12

---
Returns the measured inhibition for the input molecule. Input: Cn1cc(C=C2C(=O)Nc3cccnc32)c2ccccc21
5.07

Same read-out for O=C1NC(=O)C(c2cccc(Cl)c2)=C1Nc1ccc(O)c(Cl)c1 ?
1.17

Same read-out for Fc1cccc(COc2ccc(Nc3ncnc4cc(-c5ccc[nH]5)sc34)cc2Cl)c1 ?
5.45

Same read-out for COC(=O)Nc1nc2cc(Oc3ccc(NC(=O)Nc4cccc(C(=O)O)c4)cc3)ccc2[nH]1 ?
4.23

* * *

# maps each entry to its inhibition
assaySystem: Macrophage colony-stimulating factor 1 receptor (Homo sapiens) (UniProt P07333)
Sequence (P07333 whole entry): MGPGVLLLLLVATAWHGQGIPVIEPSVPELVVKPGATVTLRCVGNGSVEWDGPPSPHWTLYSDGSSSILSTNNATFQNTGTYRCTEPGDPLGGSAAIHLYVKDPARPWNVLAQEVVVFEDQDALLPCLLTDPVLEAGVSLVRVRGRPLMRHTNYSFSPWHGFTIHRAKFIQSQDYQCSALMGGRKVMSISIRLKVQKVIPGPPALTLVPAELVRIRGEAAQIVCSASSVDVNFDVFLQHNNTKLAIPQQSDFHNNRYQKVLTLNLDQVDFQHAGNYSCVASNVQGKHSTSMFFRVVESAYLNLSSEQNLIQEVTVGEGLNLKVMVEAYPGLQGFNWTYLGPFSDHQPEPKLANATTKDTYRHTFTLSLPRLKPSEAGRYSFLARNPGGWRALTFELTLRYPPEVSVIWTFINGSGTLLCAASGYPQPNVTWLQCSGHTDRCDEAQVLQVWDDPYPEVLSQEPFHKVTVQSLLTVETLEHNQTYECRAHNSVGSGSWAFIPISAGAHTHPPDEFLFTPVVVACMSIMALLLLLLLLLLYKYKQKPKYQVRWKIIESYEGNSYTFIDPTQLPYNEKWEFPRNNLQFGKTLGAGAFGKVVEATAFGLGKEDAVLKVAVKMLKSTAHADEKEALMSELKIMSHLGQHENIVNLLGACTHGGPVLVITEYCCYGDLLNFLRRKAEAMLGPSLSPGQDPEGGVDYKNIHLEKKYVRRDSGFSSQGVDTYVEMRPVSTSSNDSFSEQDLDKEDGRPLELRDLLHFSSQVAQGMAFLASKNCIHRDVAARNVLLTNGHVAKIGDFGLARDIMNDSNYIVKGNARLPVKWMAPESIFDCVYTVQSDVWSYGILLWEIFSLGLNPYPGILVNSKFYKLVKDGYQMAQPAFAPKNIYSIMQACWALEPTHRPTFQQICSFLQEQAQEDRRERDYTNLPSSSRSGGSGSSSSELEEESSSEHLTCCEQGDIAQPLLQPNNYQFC
conditionSet: at 1 µM
Express your answer in %, writing the number without its unit.

Below, 8 compounds whose answers are already recorded.
Returns the measured inhibition for the input compound. Input: CCCN1CCC(Oc2cc(Nc3nc(Nc4cccc(F)c4C(N)=O)c4cc[nH]c4n3)c(OC)cc2Cl)CC1
3.9

Same read-out for c1cnn2ncc(-c3ccnc(Nc4ccc5c(c4)OCCO5)n3)c2c1 ?
85.7

Same read-out for CC(=O)Nc1cccc(C#Cc2cncnc2Nc2ccc(OCc3cccc(F)c3)c(Cl)c2)n1 ?
-0.39

Same read-out for CC(C)=Cc1cccc2c1/C(=N/Nc1ccc(S(N)(=O)=O)cc1)C(=O)N2 ?
86.8

Same read-out for CS(=O)(=O)CCNCc1nc(-c2ccc3ncnc(Nc4ccc(F)c(Cl)c4)c3c2)cs1 ?
3.54

Same read-out for NS(=O)(=O)c1cccc(-c2ccc3c(NC(=O)C4CC4)n[nH]c3c2)c1 ?
2.28

Same read-out for COC(=O)Nc1nc2cc(Oc3ccc(NC(=O)Nc4cccc(C(=O)O)c4)cc3)ccc2[nH]1 ?
8.4

Same read-out for CCn1c(-c2nonc2N)nc2c(C#CC(C)(C)O)nc(OC[C@@H](N)c3ccccc3)cc21 ?
-0.91

Then there is this compound:
Returns the measured inhibition for the input compound. Input: O=C1Nc2ccc(C(=O)c3ccco3)cc2C1=Cc1cc(Cl)c(O)c(Cl)c1
74

* * *

assaySystem: Ribosomal protein S6 kinase alpha-4 (Homo sapiens);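 further: values are mean inhibition of MSK2, from GSK PKIS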
conditionSet: at 0.1 µM
assayEndpoint: inhibition (%)
Express your answer in %, writing the number without its unit.

Returns the measured inhibition for the input molecule. Input: Nc1ncnc2occ(-c3ccc(NC(=O)Nc4cc(C(F)(F)F)cc(C(F)(F)F)c4)cc3)c12
-0.06

Same read-out for CCc1cccc(NC(=O)Nc2ccc(Oc3ccc4nc(NC(=O)OC)[nH]c4c3)cc2)c1 ?
1.22

---
Returns the measured inhibition for the input molecule. Input: COc1ccc(COc2ccc(Cc3cnc(N)nc3N)cc2OC)cc1
1.99

Same read-out for COc1cccc(-n2ncc3c(N/N=C/c4cccc(F)c4)ncnc32)c1 ?
2.4

Same read-out for O=C1NC(=O)C(c2cccc(Cl)c2)=C1Nc1ccc(O)c(Cl)c1 ?
0.07

Same read-out for CCn1c(-c2nonc2N)nc2ccncc21 ?
0.33
